study.system: T1, recombinant human soluble gpNMB (recombinant human gpNMB-FLAG-His) (human, UniProt Q14956 23-498)
T1 sequence: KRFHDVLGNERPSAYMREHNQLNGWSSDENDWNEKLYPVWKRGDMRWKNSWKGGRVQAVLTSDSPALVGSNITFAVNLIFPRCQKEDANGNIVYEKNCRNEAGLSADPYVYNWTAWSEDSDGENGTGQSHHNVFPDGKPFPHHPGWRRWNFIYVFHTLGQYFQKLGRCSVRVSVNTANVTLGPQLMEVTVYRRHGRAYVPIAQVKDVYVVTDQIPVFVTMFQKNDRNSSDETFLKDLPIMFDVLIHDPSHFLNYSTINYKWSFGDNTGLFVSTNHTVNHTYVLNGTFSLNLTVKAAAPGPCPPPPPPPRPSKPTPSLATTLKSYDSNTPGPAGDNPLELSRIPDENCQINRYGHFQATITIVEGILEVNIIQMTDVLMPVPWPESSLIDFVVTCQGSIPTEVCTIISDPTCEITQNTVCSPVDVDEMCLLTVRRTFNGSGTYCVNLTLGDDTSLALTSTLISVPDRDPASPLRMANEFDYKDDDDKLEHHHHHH
protocol.text: SPR single-cycle kinetics, antibody over captured gpNMB-FLAG-His, 36C, mean of 2
This listing pairs binders with measured koff.
Form entry: value (s⁻¹) — number only.

Here's what some known entries look like.
>>> meas_value("hGPN18-5_H3L3 (antibody, V domains shown, humanized; also called hGPN18-5_VH3+VL3) VH: QVQLVQSGAEVKKPGASVKVSCKASGYTFTTYWMNWVRQAPGQGLEWIGAINPSNDYTEYNQKFKDRAIMTADKSTSTVYMELSSLRSEDTAVYYCGRSYSPDYWGQGTTVTVSS VL: DIQMTQSPSSLSASVGDRVTITCKASQNVDNHVAWHQQKPGKAPKALIYSASYRYSGVPDRFTGSGSGTDFTLTISSLQPEDFADYFCQQYKSYPFTFGGGTKLEIK")
0.00121
>>> meas_value("hGPN18-5_H0L0 (antibody, V domains shown, chimeric antibody with mouse GPN18-5 variable regions (VH0, VL0); also called hGPN18-5_VH0+VL0; HGPN18-5_VH0+VL0) VH: QVQLQQSGAELAKPGTSVKMSCKASGYTFTTYWMNWVKQRPGQDLEWIGAINPSNDYTEYNQKFKDKAILTADKSSNTAYMQLSSLTSEDSAVYYCGRSYSPDYWGQGTTLTVSS VL: DIVMTQSQKFMSTSVGDRVSVTCKASQNVDNHVAWHQQKPGQSPKALIYSASYRYSGVPDRFTGSGSGTDFTLTIRDVQSEDLADYFCQQYKSYPFTFGSGTELEIK")
0.000727

Task item: Given hGPN18-5_H3L1 (antibody, V domains shown, humanized; also called hGPN18-5 VH3+VL1) VH: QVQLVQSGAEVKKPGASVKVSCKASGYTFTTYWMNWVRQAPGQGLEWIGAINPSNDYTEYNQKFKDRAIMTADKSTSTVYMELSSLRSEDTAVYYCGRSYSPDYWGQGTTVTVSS VL: DIQMTQSPSSLSASVGDRVTITCKASQNVDNHVAWFQQKPGKAPKALIYSASYRYSGVPSRFSGSGSGTDFTLTISSLQPEDFATYFCQQYKSYPFTFGGGTKLEIK , state its recorded koff.
Reply: 0.00138
